- assay.remarks: total protein half-life in vivo (active degradation + dilution); higher = more stable protein
- test.settings: E. coli NCM3722 delta-lon; growth: N-lim chemostat; doubling time 6 h
Classify by measured total protein half-life in vivo: fulfilled if it is equal to or exceeds 4 h, not fulfilled if it is smaller.

Known results for sequences:
| sequence.content | discrete.label |
| --- | --- |
| MSAQKPGLHPRNRHHSRYDLATLCQVNPELRQFLTLTPAGEQSVDFANPLAVKALNKALLAHFYAVANWDIPDGFLCPPVPGRADYIHHLADLLAEASGTIPANASILDIGVGANCIYPLIGVHEYGWRFTGSETSSQALSSAQAIISSNPGLNRAIRLRRQKESGAIFNGIIHKNEQYDATLCNPPFHDSAAAARAGSERKRRNLGLNKDDALNFGGQQQELWCEGGEVTFIKKMIEESKGFAKQVMWFTSLVSRGENLPPLYRALTDVGAVKVVKKEMAQGQKQSRFIAWTFMNDEQRRRFVNRQR | fulfilled |
| MSHPALTQLRALRYCKEIPALDPQLLDWLLLEDSMTKRFEQQGKTVSVTMIREGFVEQNEIPEELPLLPKESRYWLREILLCADGEPWLAGRTVVPVSTLSGPELALQKLGKTPLGRYLFTSSTLTRDFIEIGRDAGLWGRRSRLRLSGKPLLLTELFLPASPLY | not fulfilled |
| MQARVKWVEGLTFLGESASGHQILMDGNSGDKAPSPMEMVLMAAGGCSAIDVVSILQKGRQDVVDCEVKLTSERREEAPRLFTHINLHFIVTGRDLKDAAVARAVDLSAEKYCSVALMLEKAVNITHSYEVVAA [P0ADX1] | fulfilled |
| MIRQRRRALTPEQQQEMGQQAATRMMTYPPVVMAHTVAVFLSFDGELDTQPLIEQLWRAGKRVYLPVLHPFSAGNLLFLNYHPQSELVMNRLKIHEPKLDVRDVLPLSRLDVLITPLVAFDEYGQRLGMGGGFYDRTLQNWQHYKTQPVGYAHDCQLVEKLPVEEWDIPLPAVVTPSKVWEW [P0AC28] | not fulfilled |
| MKKLITANDIREAHARGEQAMSVVLRASIITPEAREVADLLGFTITECDESIPVTASVPASVPADKTESQRIRETIIAQLPEGQFTESLVAQLMEKVMKEKQSLEQGAMQPSFKSVTGKGGIKVIDGSSVKFGRFDGAEPHCVGLTDLVTGDDGSSMAAGFMQWENAFFPWTLNYDEIDMVLEGELHVRHEGQTMIAKAGDVMFIPKGSSIEFGTTSSVKFLYVAWPANWQSL | not fulfilled |

Let us examine a further case.
Request: Has MRVLIVKTSSMGDVLHTLPALTDAQQAIPGIKFDWVVEEGFAQIPSWHAAVERVIPVAIRRWRKAWFSAPIKAERKAFREALQAENYDAVIDAQGLVKSAALVTRLAHGVKHGMDWQTAREPLASLFYNRKHHIAKQQHAVERTRELFAKSLGYSKPQTQGDYAIAQHFLTNLPTDAGEYAVFLHATTRDDKHWPEEHWRELIGLLADSGIRIKLPWGAPHEEERAKRLAEGFAYVEVLPKMSLEGVARVLAGAKFVVSVDTGLSHLTAALDRPNITVYGPTDPGLIGGYGKNQMVCRAPRENLINLNSQAVLEKLSSL a recorded total protein half-life in vivo greater than or equal to 4 h?
Response: fulfilled
